Values compiled from ChEMBL document CHEMBL1157561.

TEST SYSTEM: Aurora kinase A (Homo sapiens, UniProt O14965)
Sequence (O14965 whole entry): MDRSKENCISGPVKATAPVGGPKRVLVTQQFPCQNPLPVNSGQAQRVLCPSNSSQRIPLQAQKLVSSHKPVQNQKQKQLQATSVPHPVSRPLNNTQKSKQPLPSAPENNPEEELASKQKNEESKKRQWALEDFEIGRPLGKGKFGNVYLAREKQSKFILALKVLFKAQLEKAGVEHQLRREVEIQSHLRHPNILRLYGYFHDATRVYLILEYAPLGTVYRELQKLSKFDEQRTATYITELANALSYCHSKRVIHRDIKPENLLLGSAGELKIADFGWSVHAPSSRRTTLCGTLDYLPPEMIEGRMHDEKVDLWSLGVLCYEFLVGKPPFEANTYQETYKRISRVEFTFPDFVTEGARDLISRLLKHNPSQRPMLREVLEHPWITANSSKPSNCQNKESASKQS
METHOD: Inhibition of Aurora A
pIC50: −log10 of the molar value.
MEASUREMENT LABEL: pIC50

MOLECULE	OBSERVED RESULT
CNC(=O)c1nn(C)c2c1CCc1cnc(NC3CCN(C(C)=O)CC3)nc1-2	< 5.00
Cn1nc(C(N)=O)c2c1-c1nc(NCCN3CCCCC3)ncc1CC2	< 5.00
CCN1CCC(Nc2ncc3c(n2)-c2c(c(C(N)=O)nn2C)CC3)CC1	< 5.00
Cn1nc(C(N)=O)c2c1-c1nc(NCCN3CCOCC3)ncc1CC2	< 5.00
CNC(=O)c1nn(C2CCN(C)CC2)c2c1CCc1cnc(NC3CCCC3)nc1-2	< 5.00
CC(CN(C)C)NC(=O)c1nn(C)c2c1CCc1cnc(NC3CCCC3)nc1-2 (configuration not stated)	< 5.00
CC(=O)N1CCC(Nc2ncc3c(n2)-c2c(c(C(N)=O)nn2C)CC3)CC1	< 5.00
NC(=O)c1nn(-c2ccccn2)c2c1CCc1cnc(NC3CCCC3)nc1-2	< 5.00
CNC(=O)c1nn(C)c2c1CCc1cnc(NC3CCCCC3)nc1-2	< 5.00
CN(C)CCN(C)C(=O)c1nn(C)c2c1CCc1cnc(NC3CCCC3)nc1-2	< 5.00
Cn1nc(C(N)=O)c2c1-c1nc(N)ncc1CC2	< 5.00
Cn1nc(C(N)=O)c2c1-c1nc(NC3CCCC3)ncc1CC2	< 5.00

* * *

TEST SYSTEM: Cyclin-dependent kinase 2/cyclin A (Homo sapiens)
METHOD: Inhibition of CDK2/Cyclin A
Items are presented alongside their recorded log10 IC50.
MEASUREMENT LABEL: log10 IC50 (log10 of the value in nM)

1. NC(=O)c1nn(CCO)c2c1CCc1cnc(NC3CCCC3)nc1-2 0.90
2. Cn1nc(C(N)=O)c2c1-c1nc(NCc3ccncc3)ncc1CC2 1.32
3. CNC(=O)c1nn(C)c2c1CCc1cnc(NC3CCN(C)CC3)nc1-2 3.66
4. Cn1nc(C(N)=O)c2c1-c1nc(NCCN3CCCCC3)ncc1CC2 3.40
5. Cn1nc(C(N)=O)c2c1-c1nc(NCc3ccccn3)ncc1CC2 1.94

* * *

Items are presented alongside their recorded solubility.
METHOD: Solubility at pH 7.0
Format: physicochemical
EXPERIMENTAL PARAMETERS: buffer
MEASUREMENT LABEL: solubility

1. CC(=O)Nc1ccc(CNc2ncc3c(n2)-c2c(c(C(N)=O)nn2C)CC3)cc1 > 10 µM
2. CNC(=O)c1nn(C)c2c1CCc1cnc(NC3CCN(C(=O)N4CCN(C)CC4)CC3)nc1-2 > 10 µM
3. Cn1nc(C(N)=O)c2c1-c1nc(NCc3ccccc3)ncc1CC2 > 10 µM
4. COc1ccc(-n2nc(C(N)=O)c3c2-c2nc(NC4CCCC4)ncc2CC3)cc1 < 1 µM
